# experimental_target: ΔF508-CFTR (Homo sapiens, UniProt P13569, DEL508-508)
# Construct: expressed in transfected cells; host or cells: Fisher rat epithelial (FRT) cells expressing ΔF508-CFTR (Ussing chamber); NIH3T3 cells stably expressing ΔF508-CFTR (whole-cell recordings)
# Sequence (P13569 with tags, fused parts or gaps DEL508-508): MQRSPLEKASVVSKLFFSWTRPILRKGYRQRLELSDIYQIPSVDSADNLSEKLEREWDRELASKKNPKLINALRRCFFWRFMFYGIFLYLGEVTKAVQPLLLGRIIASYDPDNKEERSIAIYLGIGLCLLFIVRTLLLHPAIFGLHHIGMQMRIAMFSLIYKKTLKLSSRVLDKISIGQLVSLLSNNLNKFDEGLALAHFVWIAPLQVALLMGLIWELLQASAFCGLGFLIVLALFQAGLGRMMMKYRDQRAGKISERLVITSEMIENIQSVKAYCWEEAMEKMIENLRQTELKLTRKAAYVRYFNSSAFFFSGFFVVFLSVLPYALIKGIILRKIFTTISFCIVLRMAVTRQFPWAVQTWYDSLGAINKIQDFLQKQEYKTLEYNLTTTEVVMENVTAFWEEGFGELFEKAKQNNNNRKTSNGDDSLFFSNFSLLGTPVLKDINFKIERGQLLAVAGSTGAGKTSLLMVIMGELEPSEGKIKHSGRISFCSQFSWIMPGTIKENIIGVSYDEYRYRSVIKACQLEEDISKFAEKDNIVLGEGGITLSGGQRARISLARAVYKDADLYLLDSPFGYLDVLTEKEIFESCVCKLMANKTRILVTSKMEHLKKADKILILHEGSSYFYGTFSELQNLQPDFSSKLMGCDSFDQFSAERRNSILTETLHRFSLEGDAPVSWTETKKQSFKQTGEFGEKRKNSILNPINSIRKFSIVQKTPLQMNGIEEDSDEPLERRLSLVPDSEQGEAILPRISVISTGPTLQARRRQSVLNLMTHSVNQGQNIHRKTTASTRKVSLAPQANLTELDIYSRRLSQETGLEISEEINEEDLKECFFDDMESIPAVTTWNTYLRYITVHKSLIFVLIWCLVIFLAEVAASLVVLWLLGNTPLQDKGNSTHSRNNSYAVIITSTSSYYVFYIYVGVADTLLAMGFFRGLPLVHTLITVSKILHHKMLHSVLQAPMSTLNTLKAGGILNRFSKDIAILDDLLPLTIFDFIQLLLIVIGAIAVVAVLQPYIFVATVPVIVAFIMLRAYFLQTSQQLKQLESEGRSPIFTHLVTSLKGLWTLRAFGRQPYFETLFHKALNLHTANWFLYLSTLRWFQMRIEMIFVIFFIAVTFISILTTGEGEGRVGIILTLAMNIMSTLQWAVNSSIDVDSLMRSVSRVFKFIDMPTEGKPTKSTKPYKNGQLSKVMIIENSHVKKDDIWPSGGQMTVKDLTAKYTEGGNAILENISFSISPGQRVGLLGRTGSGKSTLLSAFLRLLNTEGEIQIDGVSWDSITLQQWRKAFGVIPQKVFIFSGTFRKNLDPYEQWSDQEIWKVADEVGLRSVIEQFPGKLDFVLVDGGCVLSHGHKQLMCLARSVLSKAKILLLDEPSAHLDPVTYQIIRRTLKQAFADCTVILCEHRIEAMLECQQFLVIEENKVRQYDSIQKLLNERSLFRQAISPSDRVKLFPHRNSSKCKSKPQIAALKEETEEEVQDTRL
# assay_notes: Assay for detecting and measuring ΔF508-CFTR potentiation properties of compounds (membrane potential optical method / Ussing chamber)
# Type: cell-based
# conditions: relative efficacy; efficacy compared to that of the known potentiator genistein
What Emax was measured for each of the following?

A selection of reference data follows.
1. O=C(Nc1ccc2cc[nH]c2c1)c1c[nH]c2ccncc2c1=O: < 25%
2. Cc1cc2c(=O)c(C(=O)Nc3cc4[nH]ccc4cc3C(F)(F)F)c[nH]c2cn1: 25 to 100%

Task: // returns reported Emax for input CC(C)c1ccccc1NC(=O)c1c[nH]c2ccncc2c1=O
Output: 25 to 100%
